Kindly state furin cleavage Z-score for each of the entries shown.
Subject of test: furin, P09958
Sequence (P09958 whole entry): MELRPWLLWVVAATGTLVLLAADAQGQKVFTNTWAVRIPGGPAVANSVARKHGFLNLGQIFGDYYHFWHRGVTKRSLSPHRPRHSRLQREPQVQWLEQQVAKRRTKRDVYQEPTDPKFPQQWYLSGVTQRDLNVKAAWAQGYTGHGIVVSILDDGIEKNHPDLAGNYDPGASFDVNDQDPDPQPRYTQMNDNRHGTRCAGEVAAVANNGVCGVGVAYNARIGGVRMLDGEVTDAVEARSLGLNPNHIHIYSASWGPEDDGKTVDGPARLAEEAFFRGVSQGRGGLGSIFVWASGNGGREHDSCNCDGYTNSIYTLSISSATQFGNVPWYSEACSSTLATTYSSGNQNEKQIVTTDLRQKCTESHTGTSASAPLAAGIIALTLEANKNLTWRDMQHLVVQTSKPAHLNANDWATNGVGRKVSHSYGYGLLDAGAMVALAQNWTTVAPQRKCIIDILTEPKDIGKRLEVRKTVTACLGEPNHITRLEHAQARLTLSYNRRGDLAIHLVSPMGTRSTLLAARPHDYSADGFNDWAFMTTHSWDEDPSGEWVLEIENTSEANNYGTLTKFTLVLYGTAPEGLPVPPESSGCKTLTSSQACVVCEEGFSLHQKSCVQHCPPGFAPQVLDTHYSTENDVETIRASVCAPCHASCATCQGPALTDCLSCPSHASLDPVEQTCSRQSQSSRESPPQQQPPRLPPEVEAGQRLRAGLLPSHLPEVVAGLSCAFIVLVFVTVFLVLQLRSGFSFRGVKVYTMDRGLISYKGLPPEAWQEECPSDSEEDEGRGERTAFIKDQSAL
Assay details: furin cleavage Z-score vs untreated control; higher = more cleavage, active = 3.5 or more, inactive = 1 or less, 8 variable residues between constant flanks;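 also: purified furin at 1:10 enzyme:substrate in 50 mM HEPES pH 7.5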
Measurement parameters: 30 min
Some of the results follow. The hit rate among all sequences tested is not known here.
Give bare numbers.

Sequence string	furin cleavage Z-score
CAMEECLQHLAGNASASA [HC24]	1.01
CALTLSPYYKAGNASASA [HC575]	-0.313
CAEVVTSIWVAGNASASA [HC2204]	-0.589

Lab note: each sequence below needs its furin cleavage Z-score filled in.
1. CADNMEECSQAGNASASA [HC1821]
2. CALVRRRRRYAGNASASA [FS-462]

# output
1: -1.08; 2: 9.67

// each listed sequence needs a value for furin cleavage Z-score
1. CADCEVVTSTAGNASASA [HC2300]
2. CATTPCFGSWAGNASASA [HC66]

# output
-0.729
-0.471
